system: T1, human 5T4ECDHis (mature protein of SEQ ID NO: 99) (human, UniProt Q13641 32-355)
T1 construct: ECD of human 5T4 (aa 1-355 of Uniprot Q13641) with C-terminal His tag; residues 1-31 are the signal peptide; also called ECD of human 5T4 with a C-terminal His tag
T1 sequence: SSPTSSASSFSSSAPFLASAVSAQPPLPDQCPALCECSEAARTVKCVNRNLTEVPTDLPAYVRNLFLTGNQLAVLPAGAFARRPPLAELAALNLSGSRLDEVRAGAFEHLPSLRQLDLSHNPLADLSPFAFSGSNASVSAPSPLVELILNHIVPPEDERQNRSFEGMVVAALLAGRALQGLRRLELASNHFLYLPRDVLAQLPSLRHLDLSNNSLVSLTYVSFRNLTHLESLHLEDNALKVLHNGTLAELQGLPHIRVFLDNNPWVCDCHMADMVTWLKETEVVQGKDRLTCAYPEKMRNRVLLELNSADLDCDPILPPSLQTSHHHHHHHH
assayDetails: BLI cross-block; competitor (immobilised): IgG1-5T4-106-FEAR
// label = true (1) if corrected association response is not less than -0.02 nm, otherwise false (0)

{"binder": "IgG1-5T4-A1-F405L (antibody, V domains shown, Variable region of A1 of WO2007106744 in a human IgG1 backbone with F405L; also called surrogate A1 antibody) VH: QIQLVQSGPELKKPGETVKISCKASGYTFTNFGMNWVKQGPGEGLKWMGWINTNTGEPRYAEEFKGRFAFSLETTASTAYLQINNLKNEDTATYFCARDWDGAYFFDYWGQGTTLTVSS VL: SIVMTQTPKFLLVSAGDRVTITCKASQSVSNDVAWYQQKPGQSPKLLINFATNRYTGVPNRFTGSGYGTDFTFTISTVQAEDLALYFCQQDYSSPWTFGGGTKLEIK", "categoryLabel": "true (1)"}
{"binder": "IgG1-5T4-A3-F405L (antibody, V domains shown, Variable region of A3 of WO2007106744 in a human IgG1 backbone with F405L; also called surrogate A3 antibody) VH: EVQLVESGGGLVQPKGSLKLSCAASGFTFNTYAMNWVRQAPGKGLEWVARIRSKSNNYATYYADSVKDRFTISRDDSQSMLYLQMNNLKTEDTAMYYCVRQWDYDVRAMNYWGQGTSVTVSS VL: DIVMTQSHIFMSTSVGDRVSITCKASQDVDTAVAWYQQKPGQSPKLLIYWASTRLTGVPDRFTGSGSGTDFTLTISNVQSEDLADYFCQQYSSYPYTFGGGTKLEIK", "categoryLabel": "true (1)"}

For this binder, is measured corrected association response -0.02 nm or higher? IgG1-5T4-085-FEAR (antibody, V domains shown, Monospecific, bivalent human IgG1 kappa with L234F, L235E, D265A, K409R (FEAR)) VH: EVQLLESGGGLVQPGGSLRLSCAASGFTFSSYAMSWVRQAPGKGLEWVSAISGSGGSTYNADSVKGRFTIFRDNSKNTLYLHMNSLRAEDTAVYYCARDPGYNNVEYLDHWGQGTLVTVSS VL: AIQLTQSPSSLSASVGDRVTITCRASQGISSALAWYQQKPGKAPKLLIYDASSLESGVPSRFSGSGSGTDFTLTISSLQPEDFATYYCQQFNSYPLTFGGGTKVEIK
false (0)

Then what about the binder IgG1-5T4-076-FEAR (antibody, V domains shown, Monospecific, bivalent human IgG1 kappa with L234F, L235E, D265A, K409R (FEAR)) VH: QVQLVQSGAEVKKPGASVKVSCKASGYTFTSYGISWVRQAPGQGLEWMGWISAYNGNTNYAQKLQGRVTMTTDTSTRTAYMELRSLRSDDTAVYYCARDPGYFDWLYGDYWGQGTLVTVSS VL: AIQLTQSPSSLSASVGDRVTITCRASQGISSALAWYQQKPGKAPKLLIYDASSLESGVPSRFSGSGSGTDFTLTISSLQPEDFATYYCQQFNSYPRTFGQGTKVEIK ?
false (0)

Now this one: IgG1-5T4-207-FEAR (antibody, V domains shown, Monospecific, bivalent IgG1 FEAR) VH: QVQLQQWGAGLLKPSETLSLTCAVYGGSFSGYYWTWIRQPPGKGLEWIGEIDHSESTNYNPSLKSRVTISVDTSKNQFSLKLSSVTAADTAVYYCAGWFGELYHYYYGMDVWGQGTTVTVSS VL: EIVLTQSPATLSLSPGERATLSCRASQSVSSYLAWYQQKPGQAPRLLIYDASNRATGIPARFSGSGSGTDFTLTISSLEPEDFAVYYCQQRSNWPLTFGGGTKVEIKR
false (0)
